# TEST PROTOCOL: Toxicity liver stage against HepG2, at 10uM
# Format: cell-based
# Parameters: test concentration 10 uM, cell line HepG2-A16-CD81EGFP
# CONDITION INFO: human, HepG2-A16-CD81EGFP cells; read-out: INHIBITION
EXPERIMENTAL READOUT: cytotoxicity at 10 µM (%)

CN(CC(=O)N(C)C1CCCCC1)Cc1nc2ccccc2c(=O)[nH]1: 2.26
Fc1ccc(CN2CCC(c3n[nH]c4nccnc34)CC2)cc1F: -11.8
NC(=O)CCn1ccc(NC(=O)c2ccc(OCC3CC3)cc2)n1: 5.48
O=C(CC1CC1)N1CCC2(CC1)C(=O)NCCN2Cc1ccccc1: -3.33
CC(C)CCC(=O)N1CCC(c2nnc(CN(C)CCO)n2C)CC1: 0.832
Cn1cc(S(=O)(=O)N2CCN(S(=O)(=O)c3ccc(Br)s3)CC2)cn1: 11.8
CCSc1ccc(NC(=O)NC2CCc3[nH]ncc3C2)cn1 (stereo unspecified): -3.27
COCCN1CCCC(O)(CN2CCCN(c3ncccn3)CC2)C1=O (stereo unspecified): -3.95
O=C(CCc1cc(O)no1)N1CCCC(COc2ccc(F)cc2)C1 (stereo unspecified): 2.47
CNC(=O)[C@@H]1C[C@H]2CN(Cc3c(C)noc3C)C[C@H]2N1C(C)C: -107
Cc1ccc2c(c1)C(NC(=O)N(C)C)CC21CCN(CC2CC2)CC1 (stereo unspecified): 4.44
O=C(CC1CCCC1)NCCS(=O)(=O)N1CCN(c2ncccn2)CC1: -1
O=C(CN1CCOC(Cn2cccn2)C1)NCCc1ccc(F)cc1 (stereo unspecified): -15.6
C1CCCN(c2nc(C3CC3)no2)CC1: -5.59
Cc1noc([C@H]2C[C@H]3OCC[C@H]3N(S(=O)(=O)C3CC3)C2)n1: -10.5
O=C(c1ccccc1)N1C[C@@H]2CCCO[C@@H]2[C@H](N2CCCC2)C1: -2.02
O=C(NCC1CCC2(CC1)OCCO2)c1ccncc1F: 14.4
CN1CCc2c(C#N)c(NCCCO)n3cnnc3c2C1: 8.71
Cc1cc(C(=O)N2CCC(N3CCNC3=O)CC2)nn1C(C)(C)C: 5.56
Cc1cc(C)n(CC2CCCN2C(=O)c2cnccn2)n1 (stereo unspecified): 6.41
Cc1ccc(C(=O)N2CCOCC2C(N)=O)c(F)c1 (stereo unspecified): 3.72
COc1ccc(Cc2ncc3c(n2)CN(C(=O)C2COCCO2)C3)cc1 (stereo unspecified): -0.579
CCS(=O)(=O)c1ncc(CN(C)C)n1Cc1ccccc1: 1.73
CC(C)c1nnc(NC(=O)NCc2ccc(CO)c(F)c2)s1: 6.54
COc1cccc(Oc2nc(C)c(C(=O)O)s2)c1OC: 1.96
O=C(Cn1nc2c(cc1=O)CSCC2)NC(Cc1ccccc1)C(=O)O (stereo unspecified): -10.1
O=C(c1ccncc1)N1CCC(c2nc(O)cc(-c3ccncc3)n2)C1 (stereo unspecified): 0.873
COCCN(CCC#N)S(=O)(=O)c1cc(F)cc(F)c1: -3.32
Cc1nn(C)c(C)c1C1COCCN1C(=O)c1n[nH]c2ccccc12 (stereo unspecified): -8.72
CN(C(=O)CCc1ccsc1)S(C)(=O)=O: 0.347
Cc1nc(C2CCNCC2)cc(N2CCCC(C(=O)NCCCO)C2)n1 (stereo unspecified): -124
CN(C)C[C@H]1C[C@H](CO)CN(C(=O)c2cc(S(N)(=O)=O)ccc2F)C1: 11.9
Cc1nccnc1N1CC[C@@H](NC(=O)c2cnccn2)[C@H](O)C1: -11.3
CCCn1c(C)c(CC(=O)NCCOC)c2c1CC(C)(C)CC2=O: -1.01
CNC(=O)N1C[C@H]2CC[C@@]3(N=C(c4ccccc4)NC3=O)[C@H]2C1: -9.84
O=C(O)CC[C@@H]1CN(c2ccncc2)CC[C@@H]1N1CCOCC1: 0.0482
OC(CNCCn1cccn1)c1ccc2c(c1)OCCO2 (stereo unspecified): -0.361
c1ccc2c(c1)N(CC1CCOC1)CC21CCN(c2cnccn2)CC1 (stereo unspecified): -94.7
CC(C)c1ncncc1C(=O)N1CCN(Cc2ccsc2)CC1: -4.49
O=C1C(NCc2ccccc2O)CCN1Cc1ccccc1 (stereo unspecified): -9.11
CN(Cc1ccco1)[C@@H]1CN(CC2CCOCC2)C[C@@H]2CCCO[C@@H]21: -71.1
Cc1nn(C)c(C)c1NC(=O)c1cccc(CN2C[C@H]3CC[C@@H](C2)N3)c1: -0.277
CC(=O)N1CCC(c2noc(C3CCC(=O)N3)n2)CC1 (stereo unspecified): 1.64
CC(=O)N1CCOC(c2cncc(CCC(=O)N(C)C)n2)C1 (stereo unspecified): -0.197
CC(C)c1nnc(CN2CCN(C(C)c3nc(C4CC4)no3)CC2)o1 (stereo unspecified): 3.48
CC(CNCC1(S(C)(=O)=O)CCOCC1)c1ccc(F)cc1 (stereo unspecified): -5.06
